- System: 7,8-diaminopelargonic acid synthase BioA (Mycobacterium tuberculosis)
- runDescription: M. tuberculosis BioA enzyme inhibitors, primary screen, biochemical, plate reader, single point, HTS (AID 602481)
- studyConditions: purified M. tuberculosis BioA enzyme, at 9.99 µM, stronger effect = higher value
The campaign covered roughly 360,000 compounds. About 340 (0.094%) were called active. For the sample, actives were picked, then their nearest neighbours and some compounds at random.
Please respond with reported inhibition for every item in the list.
Unit % implied. Number only.

Query :: Dear colleague, please send me the reported inhibition for CC(C)Oc1ccc(CCc2n[nH]c(=S)n2Cc2ccccc2)cc1 when you can.
Result :: 0.782

Query :: Dear colleague, please send me the reported inhibition for COc1cc(-c2n[nH]c(=S)n2Cc2ccccc2)cc(OC)c1OC when you can.
Result :: 69.8

Query :: Dear colleague, please send me the reported inhibition for CC(=O)Nc1ccccc1-c1cn(CC(=O)N2CCOCC2)nn1 when you can.
Result :: -2.47

Query :: Dear colleague, please send me the reported inhibition for Cc1noc(C)c1NC(=O)Nc1cccc2c1O[C@H](CN(C)S(C)(=O)=O)[C@H](C)CN([C@H](C)CO)C2=O when you can.
Result :: 3.42

Query :: Dear colleague, please send me the reported inhibition for CO[C@H]1CN(C)C(=O)c2ccc(NC(C)=O)cc2OC[C@@H](C)NC[C@H]1C when you can.
Result :: -1.23

Query :: Dear colleague, please send me the reported inhibition for CC1CC(C)CN(C(=O)CSc2nnc(CSc3ncccn3)n2C)C1 (stereo not given) when you can.
Result :: 0.828

Query :: Dear colleague, please send me the reported inhibition for Cc1ccc(S(=O)(=O)Nc2cccc3c2O[C@@H](CN(C)S(=O)(=O)c2cccs2)[C@@H](C)CN([C@@H](C)CO)C3=O)cc1 when you can.
Result :: 1.64

Query :: Dear colleague, please send me the reported inhibition for CC(=O)CSc1nnc(CSc2ncccn2)n1C1CCCCC1 when you can.
Result :: 43.5

Query :: Dear colleague, please send me the reported inhibition for CC(=O)c1ccc(N2Cc3ccccc3C2)cc1 when you can.
Result :: 10.6

Query :: Dear colleague, please send me the reported inhibition for CC(=O)c1ccc(N2CCN(CC(O)c3ccccc3)CC2)cc1 (stereo not given) when you can.
Result :: 20.2
